Recorded GFP response relative to DMSO by entry
Assay: LAP4-GFP expression modulators in yeast, confirmation, cell-based, cherry picks, flow cytometry, mother/daughter gates (AID 2271);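 further: ratio of sample to DMSO plate mean so 100% equals DMSO level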
Settings: S. cerevisiae LAP4-GFP strain, 3 h, at 10 µM, hits give high values
Form entry: value (%) — number only.

Observe how each entry below is paired with its result.
[[record]]
molecule = "CC12CN3CC(C)(CN(C1)C31CCOCC1)C2=O"
unit_descriptor = "%"
value = 99.2

[[record]]
molecule = "Nc1ccc(N=Nc2ccccc2)cc1"
unit_descriptor = "%"
value = 110

[[record]]
molecule = "N#CC(C#N)=Cc1ccc(N2CCCC2)cc1"
unit_descriptor = "%"
value = 111

[[record]]
molecule = "CN1C(=O)C(=Cc2ccc(SC3CCCCC3)o2)C(=O)N(C)C1=O"
unit_descriptor = "%"
value = 143


We next turn to a different molecule, shown below.
Problem: # return recorded GFP response relative to DMSO for entry O=C1NC(=O)N(c2ccccc2)C(=O)/C1=C/c1ccc(Sc2ccccc2)o1
Result: 177

----------
Biological target: Lethal factor (Bacillus anthracis)
Test: Lethal factor protease inhibitors, Bacillus anthracis, multiplex microsphere cleavage assay, validation set (AID 588461)
Conditions: flow cytometry, at 10 µM, hits give high values
Activity calls are given as the source filed them. The rule behind the calls is not given here.
In this section, each of the molecules is paired with its reported inhibition.

Problem: State, in one line, measured inhibition of CC(C)=CC/C=C1\CCC(C(=O)O)C(C(=O)O)C1 (stereo not drawn)
Result: -3.4% (inactive)

Problem: Entry CN1CCc2cccc3c2[C@H]1Cc1ccc(O)c(O)c1-3 needs its inhibition filled in; supply it.
Result: -33.9% (inactive)

Problem: Respond only with inhibition recorded for COCCOC(=O)C1=C(N)OC2=C(C(=O)CCC2)C1c1cccnc1 (stereo not drawn)
Result: -0.9% (inactive)

Problem: Provide inhibition value for the following molecule: O=C(NC1CCCCC1)c1cc2nc(-c3ccco3)cc(C(F)(F)F)n2n1
Result: 0.5% (inactive)

Problem: Indicate the recorded inhibition value for this molecule: CN=C(NC#N)NCCSCc1nc[nH]c1C
Result: -3.5% (inactive)

Problem: Name the recorded inhibition of the item O=C(O)CCC(=O)c1ccc(-c2ccccc2)cc1 in your answer.
Result: 2.1% (inactive)

Problem: Specify inhibition for Cc1cc(=O)oc2cc(OC(C)C(=O)NCC3CCCO3)ccc12 (stereo not drawn) and stop.
Result: -4.8% (inactive)

Problem: Give me measured inhibition, please, for this molecule: C[C@H]1CC[C@@]2(C)[C@@H](CC[C@@H]3[C@@H]2CC[C@]2(C)[C@@H](O)CC[C@@H]32)C1
Result: -4.7% (inactive)

Problem: Kindly indicate its recorded inhibition. Item: CC1(C)C(=O)OC(/C=C\c2ccccc2)C(C)(C)C1=O (stereo not drawn)
Result: 4.5% (inactive)

Problem: Using known records, supply inhibition for O=[N+]([O-])c1cc(/C=N/n2cnnc2)ccc1N1CCCC1
Result: -3.3% (inactive)

Problem: Give me measured inhibition, please, for this molecule: CC(=O)OCC(=O)[C@H]1CC[C@H]2[C@@H]3CCC4=CC(=O)CC[C@]4(C)[C@H]3CC[C@]12C
Result: -5.7% (inactive)

----------
Listed below: inhibition values for each entry.
Tested on: Botulinum neurotoxin type F light chain protease (Clostridium botulinum)
Assay: Botulinum neurotoxin type F light chain protease inhibition, multiplex microsphere flow cytometry, validation set (AID 588459)
Details: multiplex microsphere protease substrate cleavage assay, at 10 µM, hits give high values
Respond with the bare value in %.

Study these solved cases before continuing.
[[record]]
molecule = "COc1cccc(OCc2cc(C3Nc4ccccc4C(=O)N3Cc3ccco3)ccc2OC)c1 (centres undefined)"
measured_attribute = "inhibition"
value = -1

[[record]]
molecule = "O=C(O)Cc1ccc(O)c(F)c1"
measured_attribute = "inhibition"
value = 2.3

[[record]]
molecule = "CCCCOc1ccc(OCCCN2CCOCC2)cc1"
measured_attribute = "inhibition"
value = -1.1

[[record]]
molecule = "CCOC(=O)C1=C(N)Oc2c(oc(CO)cc2=O)C1c1ccc(F)c(F)c1 (centres undefined)"
measured_attribute = "inhibition"
value = 2.1

[[record]]
molecule = "Cc1ccnc2c1NC(=O)c1cccnc1N2C1CC1"
measured_attribute = "inhibition"
value = 0.7


Problem: Given CC(C)(C)n1c(=O)[nH]c2c(c1=O)CCC2 , respond with its inhibition.
Result: 1.8

Problem: Complete the entry with inhibition for CCn1c(=N)c(C(=O)NC)cc2c(=O)n3cccc(C)c3nc21
Result: 3.8

Problem: Report inhibition for COc1cc2c(cc1NCc1ccc3c(c1)OCO3)oc1ccccc12
Result: -2.5

Problem: Identify the reported inhibition for the following entry. O=C(O)c1ccccc1O
Result: 0.4

Problem: Hello, please tell me recorded inhibition for this one: COc1ccc2[nH]cc(CCNC(=O)C3CCCNC3=O)c2c1 (centres undefined)
Result: -3.2

Problem: For the molecule CC(C)(C)c1csc(N/N=C/c2cccnc2)n1 , give its reported inhibition.
Result: -3.3

Problem: Specify reported inhibition for the molecule shown: COc1ccc2oc(=O)c(C(=O)N3CCN(c4ccccc4)CC3)cc2c1
Result: -1

Problem: Give inhibition for the following molecule: CC(C)(S)[C@@H](N)C(=O)O
Result: 2.9

Origin of measurements: PubChem BioAssay
